The reported measurements were obtained from the supplement of paper PMC7877785.

Task for the reader: assign each of the following sequences its reported self-splicing fitness (ln).
Assay: self-splicing fitness, log relative to wild type (ln ratio); higher = more splicing; Tetrahymena group I intron in knt gene, E. coli kanamycin selection, DiMSum; sequences stand for … in CUCUCU…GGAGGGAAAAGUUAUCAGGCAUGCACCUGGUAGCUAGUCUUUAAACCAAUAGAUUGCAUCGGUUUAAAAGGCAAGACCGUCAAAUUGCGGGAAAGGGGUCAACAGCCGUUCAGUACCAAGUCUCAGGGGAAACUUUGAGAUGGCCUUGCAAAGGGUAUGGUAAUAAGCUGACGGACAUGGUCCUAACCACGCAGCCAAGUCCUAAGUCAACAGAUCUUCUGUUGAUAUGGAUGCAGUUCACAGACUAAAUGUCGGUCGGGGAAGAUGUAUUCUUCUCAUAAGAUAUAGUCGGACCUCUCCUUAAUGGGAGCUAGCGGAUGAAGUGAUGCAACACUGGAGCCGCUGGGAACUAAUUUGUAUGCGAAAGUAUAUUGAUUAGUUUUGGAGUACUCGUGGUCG;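 further: selection with 25 µg/mL kanamycin versus none on LB agar overnight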
Conditions: 37 °C
Reply with just the number.

According to the records, this sequence UAGCAGCAAUAUUACGGCAA displays self-splicing fitness (ln) of 0.622

According to the records, this sequence GUAAAGCAAUAUUACGCACU displays self-splicing fitness (ln) of -0.289

According to the records, this sequence UUUAAGCAAUAUUACGUUUA displays self-splicing fitness (ln) of -2.1

According to the records, this sequence CGAAAGCAAUAUUACGAGGC displays self-splicing fitness (ln) of -1.88

According to the records, this sequence UUCGAGCAAUAUUACGCUGU displays self-splicing fitness (ln) of -2.14

According to the records, this sequence CUUUAGCAAUAUUACGUCGC displays self-splicing fitness (ln) of -1.58

According to the records, this sequence AGAUAGCAAUAUUACGGAAA displays self-splicing fitness (ln) of -2.34

According to the records, this sequence UGAAAGCAAUAUUACGCAAG displays self-splicing fitness (ln) of -2

According to the records, this sequence UAGGAGCAAUAUUACGCAGC displays self-splicing fitness (ln) of -2.79

According to the records, this sequence UACAAGCAAUAUUACGACAU displays self-splicing fitness (ln) of -0.59

According to the records, this sequence CGACAGCAAUAUUACGUUAU displays self-splicing fitness (ln) of -2.23
